# experimentSummary: soluble on expression in E. coli; label from the status in PepcDB or PDB records
readoutKind: soluble on expression in E. coli

- MGSDKIHHHHHHMKTKLILVGGFLGVGKTTLLGEAARRLSQTGRKVGLITNDQASELVDTVYLEQTGTEVSEVSGSCFCCNFPGFMEAIDHVNAHKPADIIIAEPVGSCTDLSATILQPLKEKFADKLSVAPLSVLVDPRQLTDILDGRTAGLHPSAAYILRKQLEEADLIVINKTDLLTPLAVEILKKRTAEEWPLASVYAISAKTGEGLAAWLHEAQQRSGAGTHLAEVDYDTYAEGEAVLGWLNATIELQSQGADWDTLGRNLLNSLRSRFGSLNAAIGHVKLLIATDQGYVIGNITGAKDSLDIRESAGTGRKAQLTLNARVQMEPDLLEEIVKEEIAKVQADKITATIAVLKCLKPGRPNPTYRYGTIVG: not soluble
- MGSDKIHHHHHHMTKKITTHLESGLFKGKPRQKTVQHRNATTTPEMRQFIQQSDYSVSQLSKILNISEATVRKWRKRDSIDNTPNTPHKLNTTLSPMEEYVMLGLRYQLKMPLDRLLKVTQEFINPNVSRSGLARCLKRFGVSKLDEFDSPFVPEKFFNQLPITQGADIQTYTVNPKTLADTLSLPSPDPDNVVQVVSLSIPPQLTKQQAYSVLLGVDFKSDWVYLDIYQDSHTQASNRYITHVLKHGPFHLRKLLVRNYHTFLARFPGASQPAAVSTSTIDAAGSQHQITEPQLSNGDSYEPIQ: not soluble

---

# experimentSummary: soluble on expression in E. coli; label from the status in PepcDB or PDB records
readoutKind: soluble on expression in E. coli

- MPPRKIKKDPAVVAMADTLETRVKDLLEEYKKKLREVALQTAKAESDRIIATIKPKYRDMPIMEFLASPPDDFYIESGEEEEEGEAAVAVKQELPSEPDMEIDDAAAAQKTSIPIGQNSGRNTVQVKQEPEIDDDAAHETSIPIAPSGQNSGRNTAADEHRRNEIITPAGQVLPLPTLQPEKPFRAPHVDEEIAFSVNGSPLVLAGRTTATAAGKENRKKSKKSGAASKKAAAAAGPLQPETENAGTSV: not soluble
- MTETRKKPDPIDVYVGTRIRLRRNILGLTQEKLGEKLGITFQQIQKYEKGTNRIGASRLQAIAEIMDVPVSYFFDKGVGTQQVEGFAESDNDFMDFCSSSEGIQLMRAFTNISDSKVRRKIIDLAKALSEEEDLTNKL: not soluble
- MASRGKTETSKLKQNLEEQLDRLMQQLQDLEECREELDTDEYEETKKETLEQLSEFNDSLKKIMSGNMTLVDELSGMQLAIQAAISQAFKTPEVIRLFAKKQPGQLRTRLAEMDRDLMVGKLERDLYTQQKVEILTALRKLGEKLTADDEAFLSANAGAILSQFEKVSTDLGSGDKILALASFEVEKTKK: not soluble

---

# experimentSummary: soluble on expression in E. coli; label from the status in PepcDB or PDB records
readoutKind: soluble on expression in E. coli

// solved cases for soluble on expression in E. coli follow
* GPLGSMASATLGSSSSSASPAVAELCQNTPETFLEASKLLLTYADNILRNPSDEKYRSIRIGNTAFSTRLLPVRGAVECLFEMGFEEGETHLIFPKKASVEQLQKIRDLIAIERSSRLDGSSKK | soluble
* MRLEFSIYRYNPDVDDAPRMQDYTLEADEGRDMMLLDALIQLKEKDPSLSFRRSCREGVCGSDGLNMNGKNGLACITPISALNQPGKKIVIRPLPGLPVIRDLVVDMGQFYAQYEKIKPYLLNNGQNPPAREHLQMPEQREKLDGLYECILCACCSTSCPSFWWNPDKFIGPAGLLAAYRFLIDSRDTETDSRLDGLSDAFSVFRCHSIMNCVSVCPKGLNPTRAIGHIKSMLLQRNA | soluble
* MKDLIKVQQKLIPDLIDKMYRRFYILSTISQNQPVGRRSLSEHMDMTERVLRSETDMLKKQELIRVKPTGMEITNEGTEVLAQLGEYFNVYSDDHKLASAIKDKFHIKDVHVIPGDSDSNRTVKREMGQQAGQLLEGILYEDAIVSVTGGSTMACVSESIHLLPFNVFFVPARGGLGENVVYQANTIASSMAQQAGGYYTTLYVPDNVSESTYDTLMLEPSVMHTLDKIKQANITIHGIGDALKMAHRRQSSQNVIDNLQHHQAVGEAFGYYFDAQGQIVHKVKTIGLQLEDLENKDFIFAVAGGQSKGEAIKAYLSIAPENTVLITDEAAAKVILQ | not soluble
* MDEHFIKIHKWLYPVSWIYGAVVTVRNKLFDWGFLRSKSFGVPVICIGNLSVGGTGKTPHTEYLIKLLRDNYHVAVLSRGYKRHSRGYVLATPQSTARSIGDEPYQMHTKFPSVTLAVDENRCHGIEQLLSIKEPSIEVVLLDDAFQHRYVKPGLSILLTDYHRLFCDDTLLPAGRLRESVNGKNRAQIVIVTKCPQDIKPIDYNIITKRLNLYPYQQLYFSSFRYGNLQPVFPSANSEIDSTVNELPLSALTNTDILLVTGIASPAPILEELKMYTDQIDSLSFDDHHHFSHRDIQQIKERFGKLKGEHKLIVTTEKDATRLIHHPVLSEELKPFIYALPIEIEILQNQQDKFNQHIIGYVRENTRNSSFSERENAHQSLEHHHHHH | soluble
* MKGFGMFRFRRTFVPQIDMRNCGVAALASVAKYYGSDYSLAHLRELAKTNKEGTTALGLVEAAKKIGFETRAIKAEMSLFEMEDVPYPFIAHVNKDGKLQHYYVIYKSTKDYLIIGDPDPSVKVTKMTKERFEKEWTGVTLFMGPEPS | not soluble

Ask: What value of soluble on expression in E. coli has been reported for the following sequence? GKITFYEDRGFQGHCYESSSDCPNLQPYFSRCNSIRVDSGCWMLYERPNYQGHQYFLRRGDYPDYQQWMGFNDSIRSCRLIPQHTGTFRMRIYERDDFRGQMSEITDDCPSLQDRFHLTEVHSLNVLEGSWVLYEMPSYRGRQYLLRPGEYRRYLDWGAMNAKVGSLRRVMDFY
Reply: soluble

Ask: Further, for MERPRFSNYYAVRVTGGQEINVALMIEERIKTNNIKEVYSIIVPPNVKGYVILEATGPHVVKLVSQGIRHVRGFAQGLVQKDDIIKFISKTTIAPAYKVGDMVEVTSGPFRGMQAQVVRIDSAKNEVVLNILESSFPLQVTVPIDQVKPVKK ?
Reply: soluble

Ask: Further, for MAHHHHHHMEDAFAGSCVQSLFEPKADLSLCVNKSIKLFLKEVPIPPADSVDRADEQNSTDAKKEQRESALSENLSLLNGYAYFNRIKSNINLLHTELHGIKRDFLFQKKQTKKNIQKLKIVRKQNKIYQSVLQEIKKDRRRKETYELLCTEIQKLEEVNYLNKKQQMEKRDIEDLQQKMKDIENAIRINDENIQRTIQQISDIVSTNLQP ?
Reply: not soluble

Ask: Further, for MTGIYYLYLRQDDPKKATMRKLERFGLAKRVDIKGVGLKLVLTPYADIFLSREDAVLYEKYGLCVIEGSWNKIDSIKSLKFRIERRLPALLAANPVNYGKIGILSSVEATAAALYIIGYWDTAYALLSKFSWGLNFIKLNENPLNEYSTADRSEIKKIEESYFGLEHHHHHH ?
Reply: soluble

Ask: Further, for MGSDKIHHHHHHMIFSCPIDRSDVNEKLECEKGHKFGIIGGQIYDFLLKDVEVDKLLSRVIPIYESIWAPLGLLITSGKTYTSFLREIGEFIDGDLIIDVGTGTGKIFDFLNCKTCIGIDVSLRFLMYMKRKRTRVIAVRADANNLPLKSGIADGISSTLVLHMLSNPSFAIREMSRVLKSNGKCSIAVLANVNSIIGKTLSRWWKVNLRHYDYYINLLQENSLKVVERKELGPWEVINCIKIS ?
Reply: not soluble

Ask: Further, for MRMAAMHSGGKTIQLNAGHYQAKIVTVGAGLAELTHHGRHVVIPHKPEEIPMAHLGKVLIPWPNRVTNGCYSYNGKVFQLAVNDPVSQTAIHGLLAWRDWQINYQSATEASLTIFLPPSYGYPFALISEVIYRLDAASGLHVLIRTQNIGDESAPYGAGAHPYLTCNLQSIDSCVLTLPASEELPAGRDFSASCLLGETRLDHAVKTATTPAEWEVRLTSPTQNMSTFLRSTQPWLQIYTGEKLSRKGLAVEPMSCPPDAFNSGIALIHLAPKAIHQLHFSIGCD ?
Reply: not soluble

Ask: Further, for MGSDKIHHHHHHMSNLKPDSVIACLDCPNHVQAVLEASMWASIRLQAPIGLLYSVPSLQQKAAVDYSGCLNIDDENTLLDQFTAKEHLSNCELKAQGKRLLHQASSYCEQQRHKIKTYTLHRHEKLDESINYVDDQAQLIVIGHHVTCKSTLSQLIRSSHCPILVTHAPFLPPTSALFAFDNSPTSHKMLNWLCKTPLVRALMIHIVMVSKENSENCDALREAYARLKQAGIKCKKTLLDCRDVTSALTYYQHDNDIGLLMTGAFAQPRLIELLKGSDTKKLLGSTTTPYLLFPKA ?
Reply: not soluble
